System: human Factor 11 mRNA
METHOD_SUMMARY: Dose-dependent inhibition of human Factor 11 in HepG2 cells, lipofectin 2.34-75 nM (Example 5)
Type: cell-based
MEASURED_ATTRIBUTE: IC50 (nM)
Numbers only; they are read as nM.

- SUBSTANCE: "417002 (antisense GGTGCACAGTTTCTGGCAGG; 2-13-5 gapmer chemistry, further chemistry not given here) [compound 417002]"
  UNIT_LABEL: "nM"
  RECORDED_VALUE: 12

Param item = 416838 (antisense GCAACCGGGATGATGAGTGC; 5-10-5 gapmer, further chemistry not given here) [compound 416838] ; retrieve measured IC50.
10

Endpoint output: IC50 of 417003 (antisense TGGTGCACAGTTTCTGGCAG; 2-13-5 gapmer chemistry, further chemistry not given here) [compound 417003] . Value?
11

Reported IC50 for 416892 (antisense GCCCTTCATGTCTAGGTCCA; 3-14-3 chimeric gapmer, further chemistry not given here) [compound 416892] : what is it?
9

Please report the recorded IC50 for 416850 (antisense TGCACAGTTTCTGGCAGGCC; 5-10-5 gapmer, further chemistry not given here) [compound 416850] .
13

====

Documented percent inhibition of Factor 11 at 9.375 nM across a set of substances
System: human Factor 11 mRNA
METHOD_SUMMARY: Dose-dependent inhibition of human Factor 11 in HepG2 cells, lipofectin 9.375-75 nM (Example 4)
Assay type: cell-based
SETUP_CONDITIONS: 9.375 nM, relative to untreated control cells
Strand notation (5' to 3'): a small letter for the sugar, then the base; units joined by * are phosphorothioate-linked, units joined directly phosphodiester-linked; [ ] holds rarer units or linkages, { } end groups; capitals alone tell only the bases. e = 2'-O-(2-methoxyethyl) (MOE); [5mC] = 5-methylcytosine; d = 2'-deoxy (DNA)
Give the value, in units of %, as a plain number.

Worked cases, percent inhibition of Factor 11 at 9.375 nM given:
- SUBSTANCE: "416969 (antisense eG*e[5mC]*d[5mC]*d[5mC]*dT*dT*d[5mC]*dA*dT*dG*dT*d[5mC]*dT*dA*dG*eG*eT*e[5mC]*e[5mC]*eA) [compound 416969]"
  UNIT_LABEL: "%"
  RECORDED_VALUE: 17
- SUBSTANCE: "417000 (antisense eT*eG*d[5mC]*dA*d[5mC]*dA*dG*dT*dT*dT*d[5mC]*dT*dG*dG*d[5mC]*eA*eG*eG*e[5mC]*e[5mC]) [compound 417000]"
  UNIT_LABEL: "%"
  RECORDED_VALUE: 35

# evaluate next
Item 416923 (antisense eT*eG*e[5mC]*dA*d[5mC]*dA*dG*dT*dT*dT*d[5mC]*dT*dG*dG*d[5mC]*dA*dG*eG*e[5mC]*e[5mC]) [compound 416923] has what recorded percent inhibition of Factor 11 at 9.375 nM?
36

====

# Albumin listing for each entry below
METHOD_SUMMARY: Tolerability in CD1 mice: liver function, ALT, AST, bilirubin, albumin (Example 33)
SETUP_CONDITIONS: plasma, 50 mg/kg s.c. twice a week, 2 weeks

Worked cases, answers included:
- SUBSTANCE: "ISIS 416850: MOE gapmer, nucleobases 1275 to 1318 of SEQ ID NO: 1 (Table 8) (antisense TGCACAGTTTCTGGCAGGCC; MOE gapmer, wing and gap sizes not given here)"
  MEASURED_ATTRIBUTE: "Albumin"
  RECORDED_VALUE: 3.6
- SUBSTANCE: "ISIS 417002: MOE gapmer, nucleobases 1275 to 1318 of SEQ ID NO: 1 (Table 8) (antisense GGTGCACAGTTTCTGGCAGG; MOE gapmer, wing and gap sizes not given here)"
  MEASURED_ATTRIBUTE: "Albumin"
  RECORDED_VALUE: 3.2
- SUBSTANCE: "ISIS 416858: MOE gapmer, nucleobases 1275 to 1318 of SEQ ID NO: 1 (Table 8) (antisense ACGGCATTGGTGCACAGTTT; MOE gapmer, wing and gap sizes not given here)"
  MEASURED_ATTRIBUTE: "Albumin"
  RECORDED_VALUE: 3.4
- SUBSTANCE: "ISIS 416838: MOE gapmer, nucleobases 1018 to 1042 of SEQ ID NO: 1 (Table 6) (antisense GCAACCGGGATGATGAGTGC; MOE gapmer, wing and gap sizes not given here)"
  MEASURED_ATTRIBUTE: "Albumin"
  RECORDED_VALUE: 3.5

Now take the following substance into account.
So what's the measured Albumin for this one? ISIS 416864: MOE gapmer, nucleobases 1275 to 1318 of SEQ ID NO: 1 (Table 8) (antisense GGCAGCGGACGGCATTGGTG; MOE gapmer, wing and gap sizes not given here)
3.5
